- study_target: recombinant homotrimeric HA A/common magpie/Hong Kong/5052/07 H5N1 (Influenza A virus A/common magpie/Hong Kong/5052/2007(H5N1))
- assay_notes: protein microarray, purified IgG, trimeric HA
- settings: remark: other sources report otherwise
endpoint_name: Trimeric HA Binding: RLU

{"binder": "TCN-550 (5096_F06) (antibody, V domains shown) VH: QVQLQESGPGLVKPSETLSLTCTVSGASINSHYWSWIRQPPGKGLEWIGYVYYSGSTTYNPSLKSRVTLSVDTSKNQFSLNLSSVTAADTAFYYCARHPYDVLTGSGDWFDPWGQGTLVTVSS VL: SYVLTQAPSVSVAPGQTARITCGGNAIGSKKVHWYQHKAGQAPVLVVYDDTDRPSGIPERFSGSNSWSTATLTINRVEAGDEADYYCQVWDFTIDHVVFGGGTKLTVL", "obs_value": "753 RLU"}

Look up Trimeric HA Binding: RLU for this binder: TCN-536 (5095_N01) (antibody, V domains shown) VH: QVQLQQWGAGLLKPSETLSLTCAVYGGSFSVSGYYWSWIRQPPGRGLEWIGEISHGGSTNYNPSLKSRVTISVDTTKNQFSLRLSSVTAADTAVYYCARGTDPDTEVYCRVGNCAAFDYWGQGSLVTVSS VL: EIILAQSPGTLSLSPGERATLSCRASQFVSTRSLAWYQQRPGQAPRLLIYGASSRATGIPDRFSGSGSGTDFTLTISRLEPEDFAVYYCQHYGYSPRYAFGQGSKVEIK
794 RLU
